# Tested on: K562
# assayDetails: NCI tumour cell line growth inhibition, 48 h
The source made the active and inactive calls. Cut-off read from the data, not from the text of the source: active = GI50 up to about 1.1 µM and inactive = higher.
Outcome codes: active, inactive

[[record]]
compound = "O=C(Nc1cnc(O)nc1O)Oc1ccccc1"
testtarget = "K562"
group = "inactive"

[[record]]
compound = "COc1cc(/C=C/C(=O)c2ccc(NS(=O)(=O)c3cc([N+](=O)[O-])ccc3C)cc2)cc(OC)c1OC"
testtarget = "K562"
group = "inactive"

[[record]]
compound = "CCOC(=O)CCc1c(C(=O)OCC)[nH]c(/C=C2\\NC(=O)C(C)=C2CC)c1C"
testtarget = "K562"
group = "inactive"

[[record]]
compound = "C/C(CCn1[nH]c(=O)ccc1=O)=N\\N=C(N)N"
testtarget = "K562"
group = "inactive"

[[record]]
compound = "CC(C)N1CC2CN(Cc3ccccc3)CC(C1)C2=O"
testtarget = "K562"
group = "inactive"

[[record]]
compound = "Cc1ccc2oc3c(ccc(=O)n3C)c(=O)c2c1"
testtarget = "K562"
group = "inactive"

[[record]]
compound = "C=CCNC(=O)NCCCC(NC(C)=O)C(=O)NCc1ccccc1 (stereo not drawn)"
testtarget = "K562"
group = "inactive"

[[record]]
compound = "CN1CC[C@@]2(c3cccc(O)c3)CC(=O)/C(=C/c3ccc(Cl)c(Cl)c3)[C@H]1C2"
testtarget = "K562"
group = "active"

[[record]]
compound = "O=c1cc(-c2cc(O)c(O)c(-c3c(O)cc4oc(-c5ccc(O)c(O)c5)cc(=O)c4c3O)c2)oc2cc(O)cc(O)c12"
testtarget = "K562"
group = "inactive"

[[record]]
compound = "CC(=O)Nc1cc([As](=O)(O)O)ccc1O"
testtarget = "K562"
group = "inactive"

[[record]]
compound = "O=C(Nc1cccc(C(F)(F)F)c1)C(=O)C(C(=O)c1ccc2ccccc2c1)C1OC(=O)c2ccccc21 (stereo not drawn)"
testtarget = "K562"
group = "inactive"

[[record]]
compound = "CC1OC(OC2C(O[C@H]3CC[C@@]4(C)C(=CC[C@H]5[C@@H]6C[C@@H]7O[C@]8(CC[C@@H](C)CO8)[C@@H](C)[C@@H]7[C@@]6(C)CC[C@@H]54)C3)OC(CO)C(O)C2O)C(O)C(O)C1O (stereo partly drawn)"
testtarget = "K562"
group = "inactive"

[[record]]
compound = "O=C1Oc2ccccc2C(=O)/C1=C\\Nc1nc(-c2ccc(O)c(O)c2)cs1"
testtarget = "K562"
group = "inactive"

[[record]]
compound = "CCOC(=O)/C(C#N)=C/c1ccc(SCc2ccco2)c([N+](=O)[O-])c1"
testtarget = "K562"
group = "inactive"

[[record]]
compound = "N#Cc1nc(NC(=O)c2ccccc2)sc1N"
testtarget = "K562"
group = "inactive"

[[record]]
compound = "C=C=C(C(=O)OC)[S+]([O-])c1ccc([N+](=O)[O-])cc1[N+](=O)[O-] (stereo not drawn)"
testtarget = "K562"
group = "inactive"

[[record]]
compound = "COC1OC(C)/C(=N/O)C2OC(C)(C)OC12 (stereo not drawn)"
testtarget = "K562"
group = "inactive"

[[record]]
compound = "Cc1cc2c(cc1O)[nH]c1cc3c(cc12)C=CC(C)(C)O3"
testtarget = "K562"
group = "inactive"

[[record]]
compound = "OCCCNc1ccnc2cc(Cl)ccc12"
testtarget = "K562"
group = "inactive"

[[record]]
compound = "CC1CC(C)C(=O)C(C(=O)CC2CC(=O)NC2=O)C1 (stereo not drawn)"
testtarget = "K562"
group = "inactive"

[[record]]
compound = "CCN(CC)CCNc1ccc2ncn3c4cc(OC)c(OC)c(O)c4c(=O)c1c23"
testtarget = "K562"
group = "inactive"

[[record]]
compound = "CNc1ncnc2c1cnn2CCCCO"
testtarget = "K562"
group = "inactive"

[[record]]
compound = "COCc1cc2c(cc1/C=C/[N+](=O)[O-])OCO2"
testtarget = "K562"
group = "inactive"

[[record]]
compound = "OC(COc1ccc(Cl)cc1Cl)CN1CCCC1 (stereo not drawn)"
testtarget = "K562"
group = "inactive"

[[record]]
compound = "C=C(C)[C@H]1[C@@H]2OC(=O)[C@H]1[C@]1(O)C[C@H]3OC34C(=O)O[C@H]2[C@@]41C.CC(C)(O)[C@H]1[C@@H]2OC(=O)[C@H]1[C@]1(O)C[C@H]3OC34C(=O)O[C@H]2[C@@]41C (stereo partly drawn)"
testtarget = "K562"
group = "inactive"

[[record]]
compound = "O=C(O/N=C1/CCCC/C1=C\\c1ccccc1)c1ccc(Cl)c(Cl)c1"
testtarget = "K562"
group = "inactive"

[[record]]
compound = "COc1cc(CCCOC2OC(COC3OCC(O)C(O)C3O)C(O)C(O)C2O)cc2cc(-c3ccc4c(c3)OCO4)oc12 (stereo not drawn)"
testtarget = "K562"
group = "inactive"

[[record]]
compound = "CC1(C)O[C@@H]([C@@H](O)[C@H](O)C2SCCCS2)[C@@H](CO)O1"
testtarget = "K562"
group = "inactive"

[[record]]
compound = "COc1ccc(-c2nnc(CCCCCCCCc3nnc(-c4ccc(OC)cc4)n3N)n2N)cc1"
testtarget = "K562"
group = "inactive"

[[record]]
compound = "C=CCc1cccc(/C=N\\N/C(N)=N/O)c1O"
testtarget = "K562"
group = "inactive"

[[record]]
compound = "O=c1[nH]nc(-c2ccccc2)c2[nH]c3c4ccccc4ccc3c12"
testtarget = "K562"
group = "active"

[[record]]
compound = "OCCN(C1=NCCN1)/[N+](=C/c1ccccc1O)[CH-]c1ccccc1O"
testtarget = "K562"
group = "inactive"

[[record]]
compound = "CC(C)CCCC(C)C1CCC2C3CC([N+](=O)[O-])=C4CC(O)CCC4(C)C3CCC12C (stereo not drawn)"
testtarget = "K562"
group = "inactive"

[[record]]
compound = "CCOC(=O)c1sc2c(sc(=O)n2-c2ccccc2)c1O"
testtarget = "K562"
group = "inactive"

[[record]]
compound = "C[C@@H]1CCC2[C@@H](C)[C@@H](O[C@H]3O[C@@H]4O[C@@]5(C)CCC6[C@H](C)CCC([C@H]3C)[C@]64OO5)O[C@@H]3O[C@@]4(C)CCC1[C@@]23OO4 (stereo partly drawn)"
testtarget = "K562"
group = "active"

[[record]]
compound = "CCCCn1c2c(n(CCCC)c1=S)-c1c(n(CCCC)c(=S)n1CCCC)S[Se][Se]S2"
testtarget = "K562"
group = "inactive"

[[record]]
compound = "N#Cc1c(-c2ccco2)cc(-c2ccc(N)cc2)[nH]c1=O"
testtarget = "K562"
group = "inactive"

[[record]]
compound = "COc1cc(/C=C2\\N=C(c3ccccc3)N(c3ccc(C(=O)c4ccccc4)cc3N3C(=O)/C(=C/c4cc(OC)c(OC)c(OC)c4)N=C3c3ccccc3)C2=O)cc(OC)c1OC"
testtarget = "K562"
group = "inactive"

